Target: Glutamate receptor ionotropic, NMDA 2A (Rattus norvegicus, UniProt P35439+Q00959)
Sequence (Q00959 whole entry, one chain of several): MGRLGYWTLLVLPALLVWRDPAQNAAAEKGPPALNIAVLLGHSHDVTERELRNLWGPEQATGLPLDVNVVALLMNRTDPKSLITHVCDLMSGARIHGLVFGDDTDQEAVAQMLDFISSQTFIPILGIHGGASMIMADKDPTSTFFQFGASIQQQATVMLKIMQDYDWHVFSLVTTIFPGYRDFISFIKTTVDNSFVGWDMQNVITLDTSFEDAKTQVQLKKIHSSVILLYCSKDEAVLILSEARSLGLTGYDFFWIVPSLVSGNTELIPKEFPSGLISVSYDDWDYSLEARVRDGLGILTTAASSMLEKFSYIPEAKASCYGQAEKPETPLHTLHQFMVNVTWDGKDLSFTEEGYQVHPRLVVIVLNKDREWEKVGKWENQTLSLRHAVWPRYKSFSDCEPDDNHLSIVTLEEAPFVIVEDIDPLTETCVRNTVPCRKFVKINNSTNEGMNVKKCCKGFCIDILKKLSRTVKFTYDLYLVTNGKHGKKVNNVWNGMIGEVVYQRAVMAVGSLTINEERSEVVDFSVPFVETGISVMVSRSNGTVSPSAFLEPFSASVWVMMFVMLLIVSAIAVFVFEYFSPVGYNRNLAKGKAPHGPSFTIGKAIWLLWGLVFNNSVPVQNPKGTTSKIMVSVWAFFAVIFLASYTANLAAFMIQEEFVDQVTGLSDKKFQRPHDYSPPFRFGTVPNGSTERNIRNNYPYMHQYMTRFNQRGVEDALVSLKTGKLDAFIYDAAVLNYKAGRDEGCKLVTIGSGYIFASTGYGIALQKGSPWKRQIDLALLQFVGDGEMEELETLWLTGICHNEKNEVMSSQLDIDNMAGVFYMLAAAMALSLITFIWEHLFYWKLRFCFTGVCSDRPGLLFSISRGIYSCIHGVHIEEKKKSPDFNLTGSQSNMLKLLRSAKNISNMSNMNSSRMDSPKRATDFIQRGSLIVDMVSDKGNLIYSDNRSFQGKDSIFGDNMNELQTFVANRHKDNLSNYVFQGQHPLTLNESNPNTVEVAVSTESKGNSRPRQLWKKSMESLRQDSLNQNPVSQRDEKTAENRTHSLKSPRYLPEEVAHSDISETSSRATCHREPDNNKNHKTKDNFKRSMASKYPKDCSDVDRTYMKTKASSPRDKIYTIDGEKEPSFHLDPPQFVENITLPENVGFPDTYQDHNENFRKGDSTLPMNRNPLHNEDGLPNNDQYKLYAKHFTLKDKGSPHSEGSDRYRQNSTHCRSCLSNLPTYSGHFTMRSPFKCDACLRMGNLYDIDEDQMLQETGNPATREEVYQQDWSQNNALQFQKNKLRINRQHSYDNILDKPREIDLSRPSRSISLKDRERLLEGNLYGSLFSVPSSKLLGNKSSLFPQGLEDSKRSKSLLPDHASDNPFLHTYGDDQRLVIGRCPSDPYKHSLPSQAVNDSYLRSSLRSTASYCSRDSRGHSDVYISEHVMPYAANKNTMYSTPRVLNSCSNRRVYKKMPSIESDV
Test: Evaluated for in vitro inhibition of recombinant rat NR1C/2A receptor expressed in xenopus oocytes
Type: cell-based, Oocyte
Endpoint label: IC50

Tested on Glutamate receptor ionotropic, NMDA 2A (Rattus norvegicus, UniProt P35439+Q00959): Cc1ccc(CC2(O)CCN(C[C@H](O)Cc3ccc(O)cc3)CC2)cc1 . Observed IC50: > 10 µM

###

Biological target: Glutamate [NMDA] receptor
Assay: Displacement of [3H]25-6981 from N-methyl-D-aspartate glutamate receptor
Endpoint label: pKi
For clarity, pKi is expressed as the negative log10 of concentration in mol/L.

Oc1ccc(C(O)CCN2CCC(Cc3ccccc3)CC2)cc1 (centres undefined) = 8.42
Cc1ccc(CC2(O)CCN(C[C@H](O)Cc3ccc(O)cc3)CC2)cc1 = 8.31
O=C(Cc1ccc(O)cc1)CN1CCC(Cc2ccccc2)CC1 = 7.65
Oc1ccc(CC(O)CN2CCC(O)(Cc3ccc(Cl)cc3)CC2)cc1 (centres undefined) = 7.82
CC(Cc1ccc(O)cc1)CN1CCC(Cc2ccccc2)CC1 (centres undefined) = 8.47

Tested on Glutamate [NMDA] receptor: Cc1ccc(CC2(O)CCN(CC(O)Cc3ccc(O)cc3)CC2)cc1 (centres undefined) . Observed pKi: 8.12

Tested on Glutamate [NMDA] receptor: Oc1ccc(CC(O)CN2CCC(O)(Cc3ccccc3)CC2)cc1 (centres undefined) . Observed pKi: 7.65

Tested on Glutamate [NMDA] receptor: C[C@@H](CN1CCC(Cc2ccccc2)CC1)[C@@H](O)c1ccc(O)cc1 . Observed pKi: 8.25

Tested on Glutamate [NMDA] receptor: Cc1ccc(CC2(O)CCN(C[C@@H](O)Cc3ccc(O)cc3)CC2)cc1 . Observed pKi: 8.12

###

Attribute: Selectivity ratio
Target: Adrenergic receptor alpha-1 (Homo sapiens) (UniProt P35348+P25100+P35368)
Test: Selectivity ratio of alpha-1 receptor to that of NMDA was determined
Type: protein assay
Answer using only a numeral; do not append any unit.

Consider the following illustrative entries.
Oc1ccc(C(O)CCN2CCC(Cc3ccccc3)CC2)cc1 (stereo unspecified) = 6
Cc1ccc(CC2(O)CCN(CC(O)Cc3ccc(O)cc3)CC2)cc1 (stereo unspecified) = 789
Oc1ccc(CC(O)CN2CCC(O)(Cc3ccccc3)CC2)cc1 (stereo unspecified) = 200
C[C@@H](CN1CCC(Cc2ccccc2)CC1)[C@@H](O)c1ccc(O)cc1 = 32
CC(Cc1ccc(O)cc1)CN1CCC(Cc2ccccc2)CC1 (stereo unspecified) = 27

In the following, a different molecule is considered.
Note to self: Selectivity ratio recorded for COC(Cc1ccc(O)cc1)CN1CCC(Cc2ccccc2)CC1 (stereo unspecified) was 15

###

Target: Adrenergic receptor alpha-1 (Homo sapiens, UniProt P35348+P25100+P35368)
Experiment: In vitro binding affinity towards Alpha-1 adrenergic receptor by displacing [3H]prazosin radioligand
Type: protein assay
Attribute: Ki
Quick reminder: number only, in nM, skip the unit.

Consider the following illustrative entries.
Oc1ccc(CC(O)CN2CCC(O)(Cc3ccccc3)CC2)cc1 (stereo not given) = 4512
C[C@@H](CN1CCC(Cc2ccccc2)CC1)[C@@H](O)c1ccc(O)cc1 = 180
COC(Cc1ccc(O)cc1)CN1CCC(Cc2ccccc2)CC1 (stereo not given) = 305
Cc1ccc(CC2(O)CCN(CC(O)Cc3ccc(O)cc3)CC2)cc1 (stereo not given) = 5915
Oc1ccc(CC(O)CN2CCC(Cc3ccccc3)CC2)cc1 (stereo not given) = 305
CC(Cc1ccc(O)cc1)CN1CCC(Cc2ccccc2)CC1 (stereo not given) = 91.5

Note to self: Ki recorded for O=C(Cc1ccc(O)cc1)CN1CCC(Cc2ccccc2)CC1 was 610

Note to self: Ki recorded for Oc1ccc(C(O)CCN2CCC(Cc3ccccc3)CC2)cc1 (stereo not given) was 24.4

Note to self: Ki recorded for Oc1ccc(CC(O)CN2CCC(O)(Cc3ccc(Br)cc3)CC2)cc1 (stereo not given) was 2439

Note to self: Ki recorded for Oc1ccc(CC(O)CN2CCC(O)(Cc3ccc(Cl)cc3)CC2)cc1 (stereo not given) was 5610
